Provenance of the data: ChEMBL document CHEMBL3826920

# Tested on: NCI-H157
# Assay details: Growth inhibition of human NCI-H157 cells at 100 uM after 48 hrs by SRB assay
# Type: functional
# Setup conditions: NCI-H157, 48 h, read-out: GI
// label = class 1 if inhibition of growth at 100 µM is not less than 50%, otherwise class 0

{"Chemical smiles": "O=C(NC(=S)Nc1ncccn1)c1cccc(Cl)c1", "System under test": "NCI-H157", "Assigned category": "class 1"}
{"Chemical smiles": "O=C(NC(=S)Nc1c(Cl)cccc1Cl)c1cccc(Cl)c1", "System under test": "NCI-H157", "Assigned category": "class 0"}
{"Chemical smiles": "O=C(NC(=S)Nc1cccc2ccccc12)c1cccc(Cl)c1", "System under test": "NCI-H157", "Assigned category": "class 0"}
{"Chemical smiles": "O=C(NC(=S)N(C1CCCCC1)C1CCCCC1)c1cccc(Cl)c1", "System under test": "NCI-H157", "Assigned category": "class 0"}
{"Chemical smiles": "O=C(NC(=S)Nc1ccccc1)c1cccc(Cl)c1", "System under test": "NCI-H157", "Assigned category": "class 0"}
